# System: KM12
# ASSAY_REMARKS: NCI-60 single-dose screen
# Type: cell-based
# RUN_CONDITIONS: Homo sapiens; KM12, 10^–5 M; read-out: GI (%)
# Description: In the next step, all synthesized compounds were electronically submitted and accepted for testing to the National Cancer Institute (NCI) platform, for the single dose (10^−5 M) screening against a panel of 60 human tumor cell lines, representing leukemia, melanoma, and cancers of the lung, colon, central nervous system, ovary, kidney, prostate, and breast. The results are summarized in Table 2, with the best values highlighted in red (Figures S1–S14).
TEST_READOUT: inhibition at 10 µM
The number alone won't do; follow it with the unit.

Hi there! I need inhibition at 10 µM for each item below, if you can.
1. COc1ccc(C2C=C(Nc3ccc(I)cc3)C(=O)N2c2ccc(I)cc2)cc1OC (centres unmarked)
2. COc1cc(OC)c(C2C=C(Nc3ccc(I)cc3)C(=O)N2c2ccc(I)cc2)cc1OC (centres unmarked)
3. O=C1C(Nc2ccc(I)cc2)=CC(c2ccco2)N1c1ccc(I)cc1 (centres unmarked)
4. N#Cc1ccc(C2C=C(Nc3ccc(I)cc3)C(=O)N2c2ccc(I)cc2)cc1 (centres unmarked)
5. O=C1C(Nc2ccc(I)cc2)=CC(c2ccc3c(c2)OCO3)N1c1ccc(I)cc1 (centres unmarked)
6. O=C1C(Nc2ccc(I)cc2)=CC(c2ccc(O)cc2)N1c1ccc(I)cc1 (centres unmarked)

["0%", "2%", "48%", "52%", "19%", "80%"]

Hi there! I need inhibition at 10 µM for each item below, if you can.
1. O=C1C(Nc2ccc(I)cc2)=CC(c2cc(C(F)(F)F)cc(C(F)(F)F)c2)N1c1ccc(I)cc1 (centres unmarked)
2. COc1ccccc1C1C=C(Nc2ccc(I)cc2)C(=O)N1c1ccc(I)cc1 (centres unmarked)
3. O=C1C(Nc2ccc(I)cc2)=CC(c2ccc(O)c(O)c2)N1c1ccc(I)cc1 (centres unmarked)
4. O=C1C(Nc2ccc(I)cc2)=CC(c2ccc(F)cc2)N1c1ccc(I)cc1 (centres unmarked)
5. O=C1C(Nc2ccc(I)cc2)=CC(c2ccc(Br)cc2)N1c1ccc(I)cc1 (centres unmarked)

1: 13%; 2: 9%; 3: 100%; 4: 26%; 5: 17%

Hi there! I need inhibition at 10 µM for each item below, if you can.
1. O=C1C(Nc2ccc(I)cc2)=CC(c2ccc(Cl)cc2)N1c1ccc(I)cc1 (centres unmarked)
2. O=C1C(Nc2ccc(I)cc2)=CC(c2ccccc2)N1c1ccc(I)cc1 (centres unmarked)
3. O=C1C(Nc2ccc(I)cc2)=CC(c2ccc(C(F)(F)F)cc2)N1c1ccc(I)cc1 (centres unmarked)

1. 17%
2. 8%
3. 35%
